- Tested on: level of blood sugar
- experiment.description: Anti-hyperglycemia activity (reduction of blood sugar level)
- Format: in vivo, rat (Wistar, streptozotocin)
- experimental.context: oral, 300 mg/kg, 3 hrs.
We begin with a simple list: items and their reported Reduced level of blood sugar after 3 hrs..
test.readout: Reduced level of blood sugar after 3 hrs.

{"compound": "NC(=O)c1ccc(NC2O[C@H](CO)[C@@H](O)[C@H](O)[C@@H]2O)cc1 (stereo partly drawn) [Compound 4, p-aminobenzoic acid amide-N-D-mannoside]", "reading": "110 mg/dL"}
{"compound": "O=C(OC1CCCCC1)c1ccc(NC2O[C@H](CO)[C@@H](O[C@@H]3O[C@H](CO)[C@@H](O)[C@H](O)[C@H]3O)[C@H](O)[C@H]2O)cc1 (stereo partly drawn) [Compound 19]", "reading": "101 mg/dL"}
{"compound": "COC(=O)Cc1ccc(NC2O[C@@H](C)[C@H](O)[C@@H](O)[C@H]2O)cc1 (stereo partly drawn) [Compound 26]", "reading": "90 mg/dL"}
